Task for the reader: assign each of the following variants its reported folding stability dG.
B1: EEHEE_rd3_1049 (parent)
chain: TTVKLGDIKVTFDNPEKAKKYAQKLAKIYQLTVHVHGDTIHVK

Variants of: B1
assay.protocol: folding stability dG (cDNA display proteolysis); higher = more stable
measurement.parameters: PBS, room temperature
Output spec: scalar in kcal/mol, unitless text.

Look up folding stability dG of `A26M` and report it.
1.23

Give the measured folding stability dG for `V42A`
0.602

Kindly indicate its recorded folding stability dG. Item: `Y29P`
0.516

Answer with the recorded folding stability dG for the variant listed here: `V35E`
1.56

Quickly give me recorded folding stability dG for `D7C`
3.56

Using known records, supply folding stability dG for `K4N`
1.34

In one line, give reported folding stability dG of the entry `V33Q` .
0.334

Indicate its recorded folding stability dG; the variant in question is `F12K`
0.115

Read off the recorded folding stability dG for `V35G`
0.496

State, in one line, measured folding stability dG of `K4G`
0.845

Write down folding stability dG measured for item `H34K`
1.71

Indicate the recorded folding stability dG value for this variant: `V35H`
1.57

Indicate its recorded folding stability dG; the variant in question is `K4W`
2.76

Entry `Q23G` needs its folding stability dG filled in; supply it.
1.06

Answer with the recorded folding stability dG of `K19N` only.
1.64

Entry `F12A` needs its folding stability dG filled in; supply it.
0.107

Give the reported value of folding stability dG for this record: `A26E`
0.645

Quick one: give measured folding stability dG for `H36C`
3.31

Give me measured folding stability dG, please, for this variant: `G37Q`
1.27

Fill in folding stability dG for record `V33D`
-0.143

Consider the variant `T1E` and give its recorded folding stability dG.
0.641

// fetch folding stability dG given entry `T39R`
0.835

Provide one value: measured folding stability dG of `T39I`
2.27

Fill in reported folding stability dG for this entry: `A22S`
0.584

Return folding stability dG for the following variant: `K43G`
2.51

Please supply the value of reported folding stability dG for the item `H41G`
0.476

Quick one: give measured folding stability dG for `P15Y`
2.53

Identify measured folding stability dG associated with `Q23A`
2.1

Name the recorded folding stability dG of the variant listed here: `D38I`
1.6

Give the value of folding stability dG reported for the following: `L25Y`
0.832

Output measured folding stability dG for this item: `G37Y`
1.24

Specify folding stability dG for `Q30T` and stop.
1.34

Return folding stability dG for the following variant: `T32N`
1.43

Fill in folding stability dG for record `Y21G`
-0.676

State its folding stability dG: `A22G`
0.327

For the variant `H34Q` , report folding stability dG.
2.11

For the variant `L31Y` , give its measured folding stability dG value.
1.31

# return recorded folding stability dG for entry `H41W`
2.31

Kindly indicate its recorded folding stability dG. Item: `I28M`
2.36

Please give measured folding stability dG of the following entry: `D13E`
1.9

Output folding stability dG of `A26L`
1.16

Respond only with folding stability dG recorded for `A26K`
1.02

Report measured folding stability dG; entry is `D13K`
2.2

Give reported folding stability dG value for `K27C`
2.95

Give folding stability dG for the following variant: `I8T`
1.54

Output folding stability dG of `V3D`
0.577
